target: hT1R1/hT1R3 umami receptor (Homo sapiens, UniProt Q7RTX0+Q7RTX1); construct: expressed in transfected cells; host or cells: HEK293 derivative stably expressing Gα15, clone I-17, expression induced with mifepristone; experiment: In vitro hT1R1/hT1R3 umami taste receptor activation assay (FLIPR, dose response); type: cell-based; details: Table C, Umami Ureas; read-out: Umami EC50
Sequence (Q7RTX1 21-841): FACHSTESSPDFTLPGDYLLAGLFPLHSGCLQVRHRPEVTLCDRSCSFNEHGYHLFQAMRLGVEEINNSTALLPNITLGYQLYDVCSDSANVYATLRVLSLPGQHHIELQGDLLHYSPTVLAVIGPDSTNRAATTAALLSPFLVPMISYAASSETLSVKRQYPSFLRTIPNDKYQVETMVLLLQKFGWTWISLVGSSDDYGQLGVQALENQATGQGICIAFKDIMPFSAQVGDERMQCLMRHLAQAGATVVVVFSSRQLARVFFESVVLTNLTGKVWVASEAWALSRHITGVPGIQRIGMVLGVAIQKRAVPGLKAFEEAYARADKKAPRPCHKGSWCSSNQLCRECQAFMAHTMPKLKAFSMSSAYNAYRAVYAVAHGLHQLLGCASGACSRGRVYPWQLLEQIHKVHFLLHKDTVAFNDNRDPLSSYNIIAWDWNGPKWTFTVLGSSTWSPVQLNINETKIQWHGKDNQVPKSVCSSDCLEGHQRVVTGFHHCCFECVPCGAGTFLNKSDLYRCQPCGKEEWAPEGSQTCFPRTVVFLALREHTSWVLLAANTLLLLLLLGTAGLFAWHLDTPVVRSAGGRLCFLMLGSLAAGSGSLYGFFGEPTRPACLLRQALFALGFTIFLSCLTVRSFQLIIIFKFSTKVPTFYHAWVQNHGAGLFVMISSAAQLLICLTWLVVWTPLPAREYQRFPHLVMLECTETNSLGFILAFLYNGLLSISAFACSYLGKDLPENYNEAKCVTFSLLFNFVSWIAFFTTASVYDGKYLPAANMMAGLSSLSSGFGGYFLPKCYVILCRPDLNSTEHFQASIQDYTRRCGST
Sequence (Q7RTX0 21-852): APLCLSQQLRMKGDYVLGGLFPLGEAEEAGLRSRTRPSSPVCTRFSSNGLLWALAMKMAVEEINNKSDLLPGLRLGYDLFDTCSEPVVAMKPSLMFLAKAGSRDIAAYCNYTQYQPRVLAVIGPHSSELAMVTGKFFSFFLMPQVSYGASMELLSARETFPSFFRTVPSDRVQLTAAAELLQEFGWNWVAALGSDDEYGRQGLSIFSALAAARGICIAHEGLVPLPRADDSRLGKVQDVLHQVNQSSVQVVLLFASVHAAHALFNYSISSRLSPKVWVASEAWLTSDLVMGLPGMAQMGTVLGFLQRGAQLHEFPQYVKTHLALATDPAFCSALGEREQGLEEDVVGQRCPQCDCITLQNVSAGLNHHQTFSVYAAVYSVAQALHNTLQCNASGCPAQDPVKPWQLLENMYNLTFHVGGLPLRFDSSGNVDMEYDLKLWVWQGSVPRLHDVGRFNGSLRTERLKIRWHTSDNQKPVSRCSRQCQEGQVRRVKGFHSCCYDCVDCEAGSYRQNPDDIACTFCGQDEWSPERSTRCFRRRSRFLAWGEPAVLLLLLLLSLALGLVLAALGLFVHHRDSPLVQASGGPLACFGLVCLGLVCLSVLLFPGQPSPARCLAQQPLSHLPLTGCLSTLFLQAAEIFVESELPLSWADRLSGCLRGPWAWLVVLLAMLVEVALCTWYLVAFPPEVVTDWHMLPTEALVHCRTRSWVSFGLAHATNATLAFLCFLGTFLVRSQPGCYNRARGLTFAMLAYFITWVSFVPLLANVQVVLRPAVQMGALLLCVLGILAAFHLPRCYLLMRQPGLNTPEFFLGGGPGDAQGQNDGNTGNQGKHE
OUTCOME_MEASURE: EC50 (nM)

CCCC(CCC)NC(=O)Nc1ccccc1CC: 1420
CCOc1ccc(NC(=O)NC2CCCCC2C)cc1 (stereo not shown): 1510
CCCC(CCC)NC(=O)Nc1ccc(C)cc1OC: 160
O=C(Nc1ccccc1Cl)NC1CCCc2ccccc21 (stereo not shown): 990
CCCC(CCC)NC(=O)Nc1ccc(Cl)cc1Cl: 180
COc1ccccc1NC(=O)NC1CCCCC1C (stereo not shown): 1670
CC(C)C(NC(=O)Nc1ccc2c(c1)OCO2)C(C)C: 320
CCCC(CCC)NC(=O)Nc1ccccc1OC: 490

[a] CCC(NC(=O)Nc1ccc(C)cc1Cl)c1ccccc1 (stereo not shown)
[b] COc1cc(C)ccc1NC(=O)NC(C(C)C)C(C)C
Select one: a or b . Criterion: greater recorded EC50. Please indicate the selected item by its label.
a
(a: 480 nM, b: 210 nM)
